Molecular target: T1, huBCMA Fc(kih) (Homo sapiens, UniProt Q02223)
T1 construct: The extracellular domains of human and cynomolgus BCMA comprised methionine 4 to asparagine 53, and methionine 4 to asparagine 52, respectively; made in house; host or cells: HEK EBNA cells
T1 sequence (Q02223 4-53): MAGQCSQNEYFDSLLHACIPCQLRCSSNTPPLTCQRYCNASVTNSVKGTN
Assay: Biacore T200 SPR, anti-BCMA antibodies to recombinant human BCMA Fc(kih)
Type: binding
Conditions: analyte huBCMA Fc(kih), 1:1 Langmuir, 25° C.
Protocol: Assessment of binding of anti-BCMA antibodies to recombinant BCMA by surface plasmon resonance (SPR) as follow. […] The avidity of the interaction between anti-BCMA antibodies and recombinant BCMA Fc(kih) (human and cynomolgus) was determined. […] The dissociation was monitored for 180 seconds. […] The affinity of the interaction between anti-BCMA antibodies and recombinant human BCMA Fc(kih) was also determined. […] The dissociation was monitored for 120 seconds. […]
measured.parameter: Koff

For reference, reported Koff for Mab 42: anti-BCMA antibody, VH SEQ ID NO:10, VL SEQ ID NO:14 (antibody, V domains shown, Variable region VH; Variable region VL Mab42) VH: EVQLLESGGGLVQPGGSLRLSCAASGFTFSDNAMGWVRQAPGKGLEWVSAISGPGSSTYYADSVKGRFTISRDNSKNTLYLQMNSLRAEDTAVYYCAKVLGWFDYWGQGTLVTVSS VL: EIVLTQSPGTLSLSPGERATLSCRASQSVSDEYLSWYQQKPGQAPRLLIHSASTRATGIPDRFSGSGSGTDFTLAISRLEPEDFAVYYCQQYGYPPDFTFGQGTKVEIK stands at 0.000298 s⁻¹
